From: patent US6835382B2

- System: murine E^d MHC class II allele (Mus musculus, UniProt P01904+P01915)
- Sequence (P01904 26-255): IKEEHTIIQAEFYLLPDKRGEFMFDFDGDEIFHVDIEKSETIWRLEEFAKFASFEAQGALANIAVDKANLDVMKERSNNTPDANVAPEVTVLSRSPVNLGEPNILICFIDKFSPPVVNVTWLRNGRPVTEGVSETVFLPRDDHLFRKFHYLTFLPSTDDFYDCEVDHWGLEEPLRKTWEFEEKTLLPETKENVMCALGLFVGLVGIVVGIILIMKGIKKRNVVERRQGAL
- Sequence (P01915 27-264 limits assumed): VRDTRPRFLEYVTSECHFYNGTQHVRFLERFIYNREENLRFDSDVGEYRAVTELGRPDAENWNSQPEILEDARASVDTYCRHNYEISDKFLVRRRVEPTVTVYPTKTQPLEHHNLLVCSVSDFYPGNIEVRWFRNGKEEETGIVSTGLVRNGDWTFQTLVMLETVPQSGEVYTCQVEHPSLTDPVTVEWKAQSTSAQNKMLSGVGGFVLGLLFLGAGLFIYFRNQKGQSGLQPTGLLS
- Assay Explanation: processed antigen assay, E^d allele (APC pulsed with native HEL)
- Type: cell-based
- Parameters: The A20 and CH27 B cell lymphoma lines express H-2^d and H-2^k alleles, respectively; endogenous in cells; host or cells: A20 B cell lymphoma (mitomycin C-treated or paraformaldehyde-fixed)
- Test Parameters: Table 32; native HEL prepulse 20 μM; AE peptide 64 μM; supernatant dilution 1:4
Non-standard residues stand in square brackets, D forms with d. Cit = NC(=O)NCCC[C@H](N)C(=O)O
Decide by T cell response relative to baseline (None = 1.0), E^d: equal to or exceeding 0.6 means Satisfied, less means Not satisfied.

substance="Ac-LR L KLPK-NH2 (Ac-LRLKLPK-NH2; not fully specified; printed as Ac-LR L KLPK-NH2) [AE206]" system="murine E^d MHC class II allele (Mus musculus, UniProt P01904+P01915)" assigned_category="Not satisfied"

Record Ac-LRMKLPK-NH2 [AE114] ; criterion: T cell response relative to baseline (None = 1.0), E^d no lower than 0.6. Met?
Not satisfied

Another: Ac-LRMKYPN-NH2 [AE370]
Not satisfied

Another: Ac-LRMMYP[Cit]-NH2 [AE367]
Satisfied
